Reported DR/DR AA by item:
assay: Probe fluorescence ratio response to arachidonic acid relative to ADIFAB2; format: binding; details: arachidonic acid; response relative to ADIFAB2

Consider the worked cases shown below.
14R 18L 31S 73F 117E 72A (protein, listed as Rattus norvegicus, PEPTIDE (1)...(131) wild-type rat intestinal fatty acid binding protein) AFDGTWKVDRNENREKFLEKMGINVVKRKLSAHDNLKLTITQEGNKFTVKESSNFRNIDVVFELGVDFAYSAFDGTELTGTWTMEGNKLVGKFKRVDNGKELIAVREISGNELIQTETYEGVEAKRIFKKE    1.241
14M 72M 117A (protein, listed as Rattus norvegicus, PEPTIDE (1)...(131) wild-type rat intestinal fatty acid binding protein) AFDGTWKVDRNENMEKFMEKMGINVVKRKLGAHDNLKLTITQEGNKFTVKESSNFRNIDVVFELGVDFAYSMADGTELTGTWTMEGNKLVGKFKRVDNGKELIAVREISGNELIQTATYEGVEAKRIFKKE    1.649
60F, 72A (protein, listed as Rattus norvegicus, PEPTIDE (1)...(131) wild-type rat intestinal fatty acid binding protein) AFDGTWKVDRNENYEKFMEKMGINVVKRKLGAHDNLKLTITQEGNKFTVKESSNFRNIDFVFELGVDFAYSAADGTELTGTWTMEGNKLVGKFKRVDNGKELIAVREISGNELIQTYTYEGVEAKRIFKKE    1.792
31Q, 72A (protein, listed as Rattus norvegicus, PEPTIDE (1)...(131) wild-type rat intestinal fatty acid binding protein) AFDGTWKVDRNENYEKFMEKMGINVVKRKLQAHDNLKLTITQEGNKFTVKESSNFRNIDVVFELGVDFAYSAADGTELTGTWTMEGNKLVGKFKRVDNGKELIAVREISGNELIQTYTYEGVEAKRIFKKE    1.024
115H1, 72A (protein, listed as Rattus norvegicus, PEPTIDE (1)...(131) wild-type rat intestinal fatty acid binding protein) AFDGTWKVDRNENYEKFMEKMGINVVKRKLGAHDNLKLTITQEGNKFTVKESSNFRNIDVVFELGVDFAYSAADGTELTGTWTMEGNKLVGKFKRVDNGKELIAVREISGNELIHTYTYEGVEAKRIFKKE    0.89
72T 73V 74L (protein, listed as Rattus norvegicus, PEPTIDE (1)...(131) wild-type rat intestinal fatty acid binding protein) AFDGTWKVDRNENYEKFMEKMGINVVKRKLGAHDNLKLTITQEGNKFTVKESSNFRNIDVVFELGVDFAYSTVLGTELTGTWTMEGNKLVGKFKRVDNGKELIAVREISGNELIQTYTYEGVEAKRIFKKE    2.774
14L 38M 72A 117F (protein, listed as Rattus norvegicus, PEPTIDE (1)...(131) wild-type rat intestinal fatty acid binding protein) AFDGTWKVDRNENLEKFMEKMGINVVKRKLGAHDNLKMTITQEGNKFTVKESSNFRNIDVVFELGVDFAYSAADGTELTGTWTMEGNKLVGKFKRVDNGKELIAVREISGNELIQTFTYEGVEAKRIFKKE    0.861
104V1, 72A (protein, listed as Rattus norvegicus, PEPTIDE (1)...(131) wild-type rat intestinal fatty acid binding protein) AFDGTWKVDRNENYEKFMEKMGINVVKRKLGAHDNLKLTITQEGNKFTVKESSNFRNIDVVFELGVDFAYSAADGTELTGTWTMEGNKLVGKFKRVDNGKELIVVREISGNELIQTYTYEGVEAKRIFKKE    0.63
72A 117A (protein, listed as Rattus norvegicus, PEPTIDE (1)...(131) wild-type rat intestinal fatty acid binding protein) AFDGTWKVDRNENYEKFMEKMGINVVKRKLGAHDNLKLTITQEGNKFTVKESSNFRNIDVVFELGVDFAYSAADGTELTGTWTMEGNKLVGKFKRVDNGKELIAVREISGNELIQTATYEGVEAKRIFKKE    1.480
31F, 72A (protein, listed as Rattus norvegicus, PEPTIDE (1)...(131) wild-type rat intestinal fatty acid binding protein) AFDGTWKVDRNENYEKFMEKMGINVVKRKLFAHDNLKLTITQEGNKFTVKESSNFRNIDVVFELGVDFAYSAADGTELTGTWTMEGNKLVGKFKRVDNGKELIAVREISGNELIQTYTYEGVEAKRIFKKE    1.210

Which value of DR/DR AA has been reported for 73P 72A 74F (protein, listed as Rattus norvegicus, PEPTIDE (1)...(131) wild-type rat intestinal fatty acid binding protein) AFDGTWKVDRNENYEKFMEKMGINVVKRKLGAHDNLKLTITQEGNKFTVKESSNFRNIDVVFELGVDFAYSAPFGTELTGTWTMEGNKLVGKFKRVDNGKELIAVREISGNELIQTYTYEGVEAKRIFKKE in the records?
1.078
